Here, each record is paired with measured pIC50 data.
# System: 422866-222-R5-J1-PDC complex spheroid viability;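 also: spheroids exposed to compounds for one week before readout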
# assay.name: Anticancer human tumor 422866-222-R5-J1-PDC patient-derived pancreatic adenocarcinoma cell line growth inhibition [POLQ]
# test.context: curve of first compound; second compound 1 µM
# Method: Multicellular complex tumor spheroid response to Polymerase (POL) inhibitors (novobiocin, ART-558, RP6685) in combination with a variety of drugs and investigational agents in selected tumor cell lines The POL inhibitors (novobiocin, ART-558, and RP6685) were evaluated both individually and in combination with standard of care and investigational anticancer small molecules within a complex spheroid model of solid tumors. . […]
pIC50: −log10 of the molar value.

compound	pIC50
CC(C)n1c(=O)n(C)c2cnc3cc(F)c(-c4ccc(OCCCN5CCCCC5)nc4)cc3c21 + Nc1ccc(C#CCN(C(=O)Cc2ncc(C(F)(F)F)cc2C(F)(F)F)c2ccc(F)cc2)nn1	< 5.00
CC(=O)O[C@H]1C(=O)[C@@]2(C)[C@H]([C@H](OC(=O)c3ccccc3)[C@]3(O)C[C@H](OC(=O)[C@H](O)[C@@H](NC(=O)c4ccccc4)c4ccccc4)C(C)=C1C3(C)C)[C@]1(OC(C)=O)CO[C@@H]1C[C@@H]2O + Cc1cccc(N(C)C(=O)C2C(O)CCN2c2nc(C)cc(C(F)(F)F)c2C#N)c1	> 8.02

query: What measured pIC50 is associated with CNCc1ccc(-c2[nH]c3cc(F)cc4c3c2CCNC4=O)cc1 + COC1C(OC(N)=O)C(O)C(Oc2ccc3c(O)c(NC(=O)c4ccc(O)c(CC=C(C)C)c4)c(=O)oc3c2C)OC1(C)C on 422866-222-R5-J1-PDC complex spheroid viability?
result: < 5.00
